protocol notes: in vitro
settings: human, hela cells, % viability
measured metric: viability at 28.5 h, 10 µM (%)

INSERT INTO assay_data (compound, display_unit, numeric_result) VALUES
  ('O=C(c1cccc(F)c1)N1CCC(O)(c2cccnc2F)CC1 [CBK284357]', '%', 92.2),
  ('NCC1CCN(c2nc(-c3cc(C(F)(F)F)cc(C(F)(F)F)c3)cnc2N)CC1 [CBK063960]', '%', 87.3),
  ('COCc1nnc(Sc2cc(NC(C)C)ncn2)s1 [CBK093784]', '%', 89.3),
  ('COCCCn1c(=O)[nH]c2ncc(-c3cccc(CO)c3)nc21 [CBK065104]', '%', 99.4),
  ('O=C(NC1(CN2CCCCC2)CCCCC1)NS(=O)(=O)c1ccc(Cl)cc1 [CBK022858]', '%', 94.4),
  ('O=C(CSc1nnc(-c2ccncc2)n1-c1ccccc1)N/N=C/c1ccccc1O [CBK262788]', '%', 85),
  ('CC(C)(C)c1csc(NC(=O)C2CC(=O)N(c3cccc(C(F)(F)F)c3)C2)n1 (centres unmarked) [CBK175545]', '%', 106),
  ('CCn1c2ccccc2c2cc(NC(=O)C(C)Sc3n[nH]c(=O)n3C3CC3)ccc21 (centres unmarked) [CBK296636]', '%', 107),
  ('CN(C)c1ncnc2[nH]ncc12 [CBK016810]', '%', 115),
  ('Cn1c(=O)n(C)c2cc(CNC(=O)CC3COCCN3)ccc21 (centres unmarked) [CBK307252]', '%', 103),
  ('OCCNc1cncc(-c2ccccc2)n1 [CBK065857]', '%', 92),
  ('O=C(c1ccccc1)c1cc(Cl)ccc1-n1ccnc1 [CBK012383]', '%', 105),
  ('Cc1ncc(CO)c(/C=N/N=C/c2ccc(O)c(O)c2)c1O [CBK265075]', '%', 103),
  ('O=C(CCC1CCCC1)N1C[C@@H]2CCCCN(CC3CC3)[C@@H]2C1 [CBK285531]', '%', 94),
  ('Cc1ccc(S(=O)(=O)N/C(=N/C(C)C(=O)O)c2ccccc2)cc1 (centres unmarked) [CBK263099]', '%', 92.2),
  ('O=C(O)/C=C/c1cn(-c2ccccc2)nc1-c1cccs1 [CBK263119]', '%', 102),
  ('Cc1ccc(-c2csc3c(=O)[nH]c(N4CCCC(C(=O)NCc5cccnc5)C4)nc23)cc1 (centres unmarked) [CBK215546]', '%', 91.7),
  ('CC(C)Nc1nc(-c2cccnc2)cn2ccnc12 [CBK093608]', '%', 96.6),
  ('Cc1cc(O)nc(SCC(=O)Nc2cc([N+](=O)[O-])ccc2C)n1 [CBK267488]', '%', 97.9),
  ('O=C(O)c1ccc(COc2ccccc2/C=N/O)cc1 [CBK288481]', '%', 108);

###

protocol notes: in vitro
settings: human, hela cells, % viability
measured metric: viability at 28.5 h, 10 µM (%)

INSERT INTO measurements (compound, numeric_result) VALUES
  ('CCc1nn(CC(=O)N2CCC(C)CC2)c(=O)c2cc3occc3n12', 76.4),
  ('O=c1[nH]c(-c2cc(Cc3ccccc3Cl)ccc2O)nc2ccccc12', 98.3),
  ('O=C(O)c1cc2cc(F)ccc2[nH]1', 86.3),
  ('Cc1ccnn1CCC(=O)N1CCCC1c1cc2cccnc2[nH]1 (stereo not shown)', 111),
  ('CN1CCN(C(=O)COc2ccc(S(=O)(=O)Nc3ccc(Cl)cc3)cc2)CC1', 102),
  ('OCCN1CCN(c2nccnc2-c2cccs2)CC1', 106),
  ('COc1cccc(CN2CCCC(c3nc(C)n4ccccc34)C2)c1 (stereo not shown)', 101),
  ('O=C(CSc1ccc(-c2ccc(-n3ccnc3)cc2)nn1)NCc1ccco1', 62.2),
  ('O=C(Cn1c(C(F)(F)F)nc2ccccc21)NCCN1CCCC1', 97.8),
  ('COc1ccccc1-c1nccnc1NCc1ccc(C(F)(F)F)cc1', 109),
  ('CC1CCc2nn(CCNC(=O)Cc3ccccc3F)c(=O)cc2C1 (stereo not shown)', 97.2),
  ('Cc1ccc(-c2cc(CC3(C(=O)N(C)C)CCCN(C)C3)on2)cc1 (stereo not shown)', 89.3),
  ('Cc1ccc(/C=C2\SC(=S)N(CCCC(=O)N3CCC(Cc4ccccc4)CC3)C2=O)cc1', 101),
  ('O=C1CCCC[C@]2(CN(Cc3ccccc3)C[C@H]2c2ccccn2)N1', 82.6),
  ('Cn1c(=O)n(Cc2ccc(Cl)cc2)c2cccnc21', 101),
  ('C=CCNC(=O)N[C@H]1[C@H](O)[C@@H](N2CCN(c3ccccc3OC)CC2)[C@@H]2OC[C@H]1O2', 89.7),
  ('CS(=O)(=O)NC1CCCN(c2ccc3ccccc3n2)C1 (stereo not shown)', 99.7),
  ('COc1ccc(C(C)C)cc1-c1nccnc1N1CCCN(C)CC1', 110),
  ('CCCC(=O)Nc1ccccc1NC(=O)c1cccc([N+](=O)[O-])c1C', 92.1);

Recorded values, source paper PMC12040169.
